Field: pIC50. Provide a value for each of the compounds that follow.
tested on: HeLa; assay: Antiproliferative activity against human HeLa cells incubated for 48 hrs by MTT assay; type: functional, cell-based
pIC50: −log10 of the molar value.

Exam item: // map CC(=O)Nc1nccc2ncc(-c3cnn(C)c3)cc12 to recorded pIC50 (system: HeLa)
Marked response: < 4.30

Exam item: // map Cn1cc(-c2cnc3ccc(NCc4ccc(F)cc4)nc3c2)cn1 to recorded pIC50 (system: HeLa)
Marked response: 4.33

Exam item: // map Cn1cc(-c2cnc3ccc(NCC4CC4)nc3c2)cn1 to recorded pIC50 (system: HeLa)
Marked response: < 4.30

Exam item: // map Cn1cc(-c2cnc3ccnc(NC(=O)c4cccnc4)c3c2)cn1 to recorded pIC50 (system: HeLa)
Marked response: < 4.30

Exam item: // map Cn1cc(-c2cnc3ccnc(NCC4CC4)c3c2)cn1 to recorded pIC50 (system: HeLa)
Marked response: 5.13

Exam item: // map Cn1cc(-c2cnc3ccnc(NC(=O)c4ccc(F)cc4)c3c2)cn1 to recorded pIC50 (system: HeLa)
Marked response: < 4.30
